Data provenance: ChEMBL document CHEMBL3507680

Kindly state cytotoxicity at 70.5 h for each of the entries shown.
Test: Human HepG2 cell viability assay in 384 well format
Assay type: toxicity, cell-based
Parameters: dose 125 nL, time 70.5 hour; concentration not given beside the values
Conditions: HepG2 cells, read-out: Inhibition
Please state the figure in %; there is no need to write the unit.

Entry O=C1C[C@H]2CC[C@@H](CN1)N2C(=O)Cc1ccsc1 — recorded cytotoxicity at 70.5 h = -8.54

Entry O=C(Cc1ccccn1)N1C[C@H]2CCC[C@@]2(COc2ccccn2)C1 — recorded cytotoxicity at 70.5 h = 6.94

Entry Cc1ccnc(NC(=O)c2cccc(OCc3nnnn3C)c2)c1 — recorded cytotoxicity at 70.5 h = -17.9

Entry Cc1ncnc2c1CCN(C(=O)c1cnccn1)CC2 — recorded cytotoxicity at 70.5 h = -0.588

Entry CS(=O)(=O)N1CCN(Cc2cccs2)CC(C(N)=O)C1 (stereo unspecified) — recorded cytotoxicity at 70.5 h = -2.16

Entry O=C(CN1CCCC(Cn2cncn2)C1)NCCCc1ccccc1 (stereo unspecified) — recorded cytotoxicity at 70.5 h = -2.31

* * *

Kindly state cytotoxicity at 70.5 h for each of the entries shown.
Assay: Human HepG2 cell viability assay in 384 well format
Assay type: toxicity, cell-based
Set-up: dose 125 nL, time 70.5 hour; concentration not given beside the values
Details: HepG2 cells, read-out: Inhibition
Please state the figure in %; there is no need to write the unit.

Entry CCc1nn(C)c(Cl)c1CN1CCC(c2cc(O)nc(C)n2)CC1 — recorded cytotoxicity at 70.5 h = -10.5

Entry Cc1ccc(C(=O)N(Cc2cccnc2)C[C@@H]2CCC(=O)N2)s1 — recorded cytotoxicity at 70.5 h = 28

Entry CCCNC(=O)C1CCN(CC(O)c2ccc(C(F)(F)F)cc2)CC1 (stereo unspecified) — recorded cytotoxicity at 70.5 h = -5.86

Entry CN(CCCc1cnn(C)c1)C(=O)C1CCCN(C2CCCC2)C1 (stereo unspecified) — recorded cytotoxicity at 70.5 h = 7.47

Entry CC(C)(C)OC(=O)NC(C)(C)c1noc(CSc2ccccn2)n1 — recorded cytotoxicity at 70.5 h = -1.21

Entry CC(NC(=O)N(C)CCCOc1ccc(F)cc1)c1nncn1C (stereo unspecified) — recorded cytotoxicity at 70.5 h = -1.45

Entry CN(Cc1cnn(C)c1)CC(O)c1ccc2c(c1)OCO2 (stereo unspecified) — recorded cytotoxicity at 70.5 h = -2.83

Entry CSCCC(Nc1nc(C)cc(C)n1)C(=O)NC1CC1 (stereo unspecified) — recorded cytotoxicity at 70.5 h = -10.9

Entry COc1ccc(-n2nnc(C(=O)NC(C)C)c2C2CC2)cc1 — recorded cytotoxicity at 70.5 h = -6.86

Entry Cc1ccccc1C1(C(=O)NCCN2CCCCC2C)CCOCC1 (stereo unspecified) — recorded cytotoxicity at 70.5 h = -6.68

Entry CCN1N=C(C(=O)N2CCCC(c3nc(C)c(C)s3)C2)CCC1=O (stereo unspecified) — recorded cytotoxicity at 70.5 h = -0.596

* * *

Assay: Human HepG2 cell viability assay in 384 well format
Assay type: toxicity, cell-based
Parameters: dose 125 nL, time 70.5 hour; concentration not given beside the values
Conditions: HepG2 cells, read-out: Inhibition
Measured Quantity: cytotoxicity at 70.5 h (%)
Please state the figure in %; there is no need to write the unit.

Entry CN(C)S(=O)(=O)N(C)C(c1cccnc1)c1ccc(F)c(F)c1 (stereo unspecified) — recorded cytotoxicity at 70.5 h = 14.4

Entry NCCc1cccc(CN2CCN(c3ccccc3)C(=O)C2)c1 — recorded cytotoxicity at 70.5 h = -9.38

Entry Cc1ccc(S(=O)(=O)N2CCC(O)(CN(C)C)C2)cc1 (stereo unspecified) — recorded cytotoxicity at 70.5 h = -4.32

Entry COc1ccc(CN2C[C@@H](F)[C@@H](OCc3nc4cnccc4[nH]3)C2)cn1 — recorded cytotoxicity at 70.5 h = -4.62

Entry CC(=O)NCCC1CCCCN1S(=O)(=O)c1cccc(F)c1 (stereo unspecified) — recorded cytotoxicity at 70.5 h = 19.6

Entry Cc1cc(C)c(CNc2nc3ccccc3cc2CO)c(=O)[nH]1 — recorded cytotoxicity at 70.5 h = 6.72

Entry O=C(c1ccncc1F)N1CCc2onc(COc3cccnc3)c2C1 — recorded cytotoxicity at 70.5 h = -6.64

Entry CC(=O)N(C)Cc1ccc(OCc2cccs2)cc1 — recorded cytotoxicity at 70.5 h = -2.58

Entry CNc1nc(C2CCCN2C(C)=O)nc2c1CCN(CC1CC1)C2 (stereo unspecified) — recorded cytotoxicity at 70.5 h = -13.7

Entry CN(Cc1ccco1)C1CCC12CCN(C(=O)C1CCOCC1)CC2 (stereo unspecified) — recorded cytotoxicity at 70.5 h = -3.65

Entry Cc1nn(C)c2nc3c(c(C(=O)/N=c4\[nH]nc(C(C)C)s4)c12)CCC3 — recorded cytotoxicity at 70.5 h = -18.8

* * *

Assay: Human HepG2 cell viability assay in 384 well format
Type: toxicity, cell-based
Parameters: dose 125 nL, time 70.5 hour; concentration not given beside the values
Conditions: HepG2 cells, read-out: Inhibition
Measured Quantity: cytotoxicity at 70.5 h (%)
Please state the figure in %; there is no need to write the unit.

Entry O=C1O[C@@H]2CN(Cc3cccc(F)c3)C[C@@H]2N1CCCN1CCOCC1 — recorded cytotoxicity at 70.5 h = 9.24

Entry O=C(NCC1(c2ccc(F)cc2)CCCC1)N1CCOC(CO)C1 (stereo unspecified) — recorded cytotoxicity at 70.5 h = 2.92

Entry CCN1CCC2(CCC(=O)N2Cc2cccc(C)n2)CC1 — recorded cytotoxicity at 70.5 h = -4.89

Entry COCc1nc(C2CCN(Cc3ncc[nH]3)CC2)no1 — recorded cytotoxicity at 70.5 h = 6.2

Entry CCOCCCNC(=O)NCc1c(C)nn(C)c1C — recorded cytotoxicity at 70.5 h = 22.3

Entry CC(C)c1n[nH]c(C2CN(Cc3ncc[nH]3)CCO2)n1 (stereo unspecified) — recorded cytotoxicity at 70.5 h = 35.2

Entry O=C(c1cscn1)N1CCC2(CCCN(CCOc3ccccc3)C2)C1 (stereo unspecified) — recorded cytotoxicity at 70.5 h = -19.6

Entry O=C(Nc1cccnc1)C1Cc2nc(-c3ccsc3)sc2N1CC1CC1 (stereo unspecified) — recorded cytotoxicity at 70.5 h = 15.3

Entry CCOc1cc(CNCc2cnc(C)cn2)c(Cl)cc1OC(C)C — recorded cytotoxicity at 70.5 h = 3.1

Entry CC(C)c1csc(C2CCCN(C(=O)c3ccc[nH]3)C2)n1 (stereo unspecified) — recorded cytotoxicity at 70.5 h = -4.24

Entry Cc1cc(CNC(=O)CCN2CCN(c3ccccn3)CC2)c(C)o1 — recorded cytotoxicity at 70.5 h = 9.41

* * *

Test: Human HepG2 cell viability assay in 384 well format
Assay type: toxicity, cell-based
Set-up: dose 125 nL, time 70.5 hour; concentration not given beside the values
Conditions: HepG2 cells, read-out: Inhibition
Kindly state cytotoxicity at 70.5 h for each of the entries shown.
Please state the figure in %; there is no need to write the unit.

Entry Cc1cc2c(=O)n3c(nc2s1)CCN(Cc1ccncc1)CC3 — recorded cytotoxicity at 70.5 h = -13.5

Entry Cc1noc(C2CCN(CC(=O)N3CCNC(=O)C3)CC2)n1 — recorded cytotoxicity at 70.5 h = 17.7

Entry c1ccc(CN(Cc2ncc[nH]2)Cc2nccs2)cc1 — recorded cytotoxicity at 70.5 h = -14.7

Entry c1csc(CN2CCc3ncnc(C4CCOC4)c3CC2)n1 (stereo not drawn) — recorded cytotoxicity at 70.5 h = -4.88

Entry Cc1nn(C)c2ncnc(NCc3nncn3C3CCCCC3)c12 — recorded cytotoxicity at 70.5 h = -6.04

Entry CSCC(C)(O)CNS(=O)(=O)c1ccc(F)cc1 (stereo not drawn) — recorded cytotoxicity at 70.5 h = -7.51

Entry CCOCC(O)CN1CCN(C(=O)c2cc(F)ccc2C)CC1 (stereo not drawn) — recorded cytotoxicity at 70.5 h = -18.9

Entry Cc1c(C(=O)NCC2CCN(Cc3c[nH]cn3)C2)[nH]c2ccccc12 (stereo not drawn) — recorded cytotoxicity at 70.5 h = 8.7

Entry Cc1cc(C)n(-c2cccc(NC(=O)N3CCC[C@@H]3CO)c2)n1 — recorded cytotoxicity at 70.5 h = -16

Entry CN1CCOCC2(CCN(Cc3ccc[nH]3)CC2)C1 — recorded cytotoxicity at 70.5 h = 30

Entry COc1ccccc1OC1CN(Cc2ccc(C(=O)O)cc2)C1 — recorded cytotoxicity at 70.5 h = -8.2

Entry COc1cc(NCCCSc2nnc(C)s2)ncn1 — recorded cytotoxicity at 70.5 h = 12

Entry COCCn1ccc2c(NC(=O)c3n[nH]c4c3CCCC4)cccc21 — recorded cytotoxicity at 70.5 h = 7.53

Entry c1cc(CNCC2Cn3nncc3CO2)cs1 (stereo not drawn) — recorded cytotoxicity at 70.5 h = -6.68

Entry O=C1CCc2ccccc2N1CCCn1cnnn1 — recorded cytotoxicity at 70.5 h = -7.93

Entry COc1ccc(C2CN(c3cc(C)ncn3)CCN2C(C)=O)cc1 (stereo not drawn) — recorded cytotoxicity at 70.5 h = -5.95

Entry N#Cc1cccc(N2CCCC3(CN(C(=O)c4ccc[nH]4)CCO3)C2)c1 (stereo not drawn) — recorded cytotoxicity at 70.5 h = -5.89

Entry Cc1cc(N(C)C)nc(NC2CCc3nc(C)nn3C2)n1 (stereo not drawn) — recorded cytotoxicity at 70.5 h = 6.17

Entry CC(=O)N1CCC(c2nccnc2Nc2ncc(C)s2)CC1 — recorded cytotoxicity at 70.5 h = -10.6

Entry NC(=O)c1ccc(NC(=O)Cn2cc(-c3ccccc3)ncc2=O)cc1 — recorded cytotoxicity at 70.5 h = -17.2

Entry COCCN1CC(C(=O)N(C)Cc2cc(-c3cccnc3)no2)CC1=O (stereo not drawn) — recorded cytotoxicity at 70.5 h = -11.9

Entry CC(C)NC(=O)N1CCCC(Cn2cc(-c3ccc(F)cc3)nn2)C1 (stereo not drawn) — recorded cytotoxicity at 70.5 h = 23.4

Entry Cc1cccc(CN2CCc3ncnc(N4CCN(C)CC4)c3CC2)n1 — recorded cytotoxicity at 70.5 h = -0.603

Entry Cn1ccc(C(=O)N2CCCC(c3cc(O)n(C)n3)C2)n1 (stereo not drawn) — recorded cytotoxicity at 70.5 h = 28

Entry CC(c1nc(C2CC2)no1)N1CCN(Cc2ccsc2)CC1 (stereo not drawn) — recorded cytotoxicity at 70.5 h = -12.3

Entry CC(C)N(Cc1cnn(C)c1)C(=O)c1ccnc(N(C)C)c1 — recorded cytotoxicity at 70.5 h = -7.21

Entry O=C(Cn1nc(-c2ccc(F)cc2)oc1=O)NCCc1ccccc1 — recorded cytotoxicity at 70.5 h = -10.7

Entry CC(C)Oc1ncccc1CNC(=O)N1CCSCC1 — recorded cytotoxicity at 70.5 h = -2.87

Entry CN(Cc1cc(-c2ccccc2)no1)Cc1nccn1C — recorded cytotoxicity at 70.5 h = 9.3

Entry COc1cccc(-n2nnc(C(=O)N3CCOC(C)C3)c2C)c1 (stereo not drawn) — recorded cytotoxicity at 70.5 h = -1.7

Entry CCN(C(=O)CN(C)C(c1cccc(F)c1)c1ccccn1)C1CC1 (stereo not drawn) — recorded cytotoxicity at 70.5 h = -5.47

Entry CC1CCCCN1c1nc2c(c(=O)[nH]1)CCN(Cc1ccccn1)C2 (stereo not drawn) — recorded cytotoxicity at 70.5 h = 3.45

Entry O=C(NCCc1ccncc1)[C@H]1CC[C@@H]2[C@@H](CCN2CC2CC2)O1 — recorded cytotoxicity at 70.5 h = -10.8

Entry COc1cc(N2CC[C@@H](O)[C@@H]2Cc2ccccc2)ncn1 — recorded cytotoxicity at 70.5 h = -5.14

Entry Cc1ccc(N2CCN(C(=O)CCc3ccc(O)cc3)CC2=O)cc1 — recorded cytotoxicity at 70.5 h = -10.1

Entry Cc1ccc(F)cc1S(=O)(=O)Nc1cnc(N2CCCC2)nc1 — recorded cytotoxicity at 70.5 h = -9.37

Entry CCCc1cc(NCCC2CCCOC2)n2nccc2n1 (stereo not drawn) — recorded cytotoxicity at 70.5 h = 14.3

Entry CCN(CC1CCCO1)C(=O)Nc1ccc(OC)c(C)c1 (stereo not drawn) — recorded cytotoxicity at 70.5 h = -8.02

Entry COc1ccc(S(=O)(=O)NCC(c2cccn2C)N(C)C)c(C)c1 (stereo not drawn) — recorded cytotoxicity at 70.5 h = -12.6

Entry O=C1N(Cc2cccnc2)C[C@H]2CN(C3CCOCC3)CCN12 — recorded cytotoxicity at 70.5 h = -0.196

Entry CCn1nccc1C(=O)Nc1nc(C)c(C(C)=O)s1 — recorded cytotoxicity at 70.5 h = -5.2

Entry N#Cc1ccc(SCCOCCO)c(F)c1 — recorded cytotoxicity at 70.5 h = -8.55

Entry CC(NS(C)(=O)=O)C(=O)Nc1ccc2oc(C3CC3)nc2c1 (stereo not drawn) — recorded cytotoxicity at 70.5 h = -3.24

Entry CCCc1noc(CN2CCC(C(=O)Nc3cnn(CC)c3)CC2)n1 — recorded cytotoxicity at 70.5 h = -14.6

Entry Cc1cnn(CC2CN(Cc3nc4cccnc4[nH]3)CCO2)c1 (stereo not drawn) — recorded cytotoxicity at 70.5 h = 7.51

Entry Cn1ccnc1CN1CCN2C[C@H](Oc3ccccc3)C[C@H]2C1 — recorded cytotoxicity at 70.5 h = 11.2

Entry Cc1cc(C[C@@H]2CCC[C@H]2NCc2c[nH]nc2-c2ccccc2)on1 — recorded cytotoxicity at 70.5 h = 20.7

Entry CC(=O)NC[C@]1(O)CCN(C(=O)c2ccc(C)c(F)c2)C[C@H]1O — recorded cytotoxicity at 70.5 h = -2.74
